Test: Volume of distribution at steady state in Wistar han rat at 2 mg/kg, po and 1 mg/kg, iv
Type: ADME, organism-based
Conditions: in vivo, read-out: Vdss
assayReadout: Vd

Cc1nocc1-c1ccc2[nH]c([C@@]3(Cc4ccccc4)OC(=O)N([C@H](C)c4ccc(F)cc4)C3=O)nc2c1: 1.9 L/kg
C[C@H](c1ccc(F)cc1)N1C(=O)O[C@](Cc2ccccc2)(c2nc3cc(NS(C)(=O)=O)ccc3[nH]2)C1=O: 1.8 L/kg
C[C@H](c1ccc(F)cc1)N1C(=O)O[C@](Cc2ccccc2)(c2nc3cc(Cl)ccc3[nH]2)C1=O: 4.6 L/kg

// switching to the query compound
**Query** Indicate the recorded Vd value for this compound: C[C@H](c1ccc(F)cc1)N1C(=O)O[C@](Cc2ccccc2)(c2nc3c(NS(C)(=O)=O)cccc3[nH]2)C1=O
**Result** 3.2 L/kg

---

Test system: Rattus norvegicus
Test: Dose normalized AUC in Wistar han rat at 2 mg/kg, po
Assay type: ADME, organism-based
Conditions: in vivo
Attribute: AUC/dose
Answer in µM·kg·h/mg, number only, no unit symbol.

Solved cases (3 shown):
C[C@H](c1ccc(F)cc1)N1C(=O)O[C@](Cc2ccccc2)(c2nc3c(C(F)(F)F)cccc3[nH]2)C1=O: 0.067
C[C@H](c1ccc(F)cc1)N1C(=O)O[C@](Cc2ccccc2)(c2nc3cc(-c4cccnc4)ccc3[nH]2)C1=O: 0.046
C[C@H](c1ccc(F)cc1)N1C(=O)O[C@](Cc2ccccc2)(c2nc3cc(NS(C)(=O)=O)ccc3[nH]2)C1=O: 0.067

Consider the additional compound presented here.
**Query** Identify measured AUC/dose corresponding to C[C@H](c1ccc(F)cc1)N1C(=O)O[C@](Cc2ccccc2)(c2nc3cc(Cl)ccc3[nH]2)C1=O
**Result** 0.11

---

Test: Metabolic stability in rat liver microsomes assessed as compound remaining at 1 uM after 0.5 hrs
Type: ADME
Settings: read-out: Stability
assayReadout: remaining at 0.5 h, 1 µM (%)
The figure you give is taken to be in %; do not add the unit.

Some entries whose results are on file:
C[C@H](c1ccc(F)cc1)N1C(=O)O[C@](Cc2ccccc2)(c2nc3c(NS(C)(=O)=O)cccc3[nH]2)C1=O: 44
C[C@H](c1ccc(F)cc1)N1C(=O)O[C@](Cc2ccccc2)(c2nc3cc(-c4cc[nH]n4)ccc3[nH]2)C1=O: 62
CC(=O)Nc1cccc2[nH]c([C@@]3(Cc4ccccc4)OC(=O)N([C@H](C)c4ccc(F)cc4)C3=O)nc12: 41
C[C@H](c1ccc(F)cc1)N1C(=O)O[C@](Cc2ccccc2)(c2nc3cc(-c4cccnc4Cl)ccc3[nH]2)C1=O: 25
C[C@H](c1ccc(F)cc1)N1C(=O)O[C@](Cc2ccccc2)(c2nc3cc(C(F)(F)F)ccc3[nH]2)C1=O: 41
C[C@H](c1ccc(F)cc1)N1C(=O)O[C@](Cc2ccccc2)(c2nc3c(F)cccc3[nH]2)C1=O: 0
C[C@H](c1ccc(F)cc1)N1C(=O)O[C@](Cc2ccccc2)(c2nc3cc(-c4cccnc4)ccc3[nH]2)C1=O: 45
C[C@H](c1ccc(F)cc1)N1C(=O)O[C@](Cc2ccccc2)(c2nc3cc(-c4cnn(C)c4)ccc3[nH]2)C1=O: 26

Please examine the following record next.
**Query** // Input: C[C@H](c1ccc(F)cc1)N1C(=O)O[C@](Cc2ccccc2)(c2nc3cc(Cl)ccc3[nH]2)C1=O . Output its remaining at 0.5 h, 1 µM only.
**Result** 14

---

Biological target: Mineralocorticoid receptor (Homo sapiens, UniProt P08235)
Sequence (P08235 whole entry): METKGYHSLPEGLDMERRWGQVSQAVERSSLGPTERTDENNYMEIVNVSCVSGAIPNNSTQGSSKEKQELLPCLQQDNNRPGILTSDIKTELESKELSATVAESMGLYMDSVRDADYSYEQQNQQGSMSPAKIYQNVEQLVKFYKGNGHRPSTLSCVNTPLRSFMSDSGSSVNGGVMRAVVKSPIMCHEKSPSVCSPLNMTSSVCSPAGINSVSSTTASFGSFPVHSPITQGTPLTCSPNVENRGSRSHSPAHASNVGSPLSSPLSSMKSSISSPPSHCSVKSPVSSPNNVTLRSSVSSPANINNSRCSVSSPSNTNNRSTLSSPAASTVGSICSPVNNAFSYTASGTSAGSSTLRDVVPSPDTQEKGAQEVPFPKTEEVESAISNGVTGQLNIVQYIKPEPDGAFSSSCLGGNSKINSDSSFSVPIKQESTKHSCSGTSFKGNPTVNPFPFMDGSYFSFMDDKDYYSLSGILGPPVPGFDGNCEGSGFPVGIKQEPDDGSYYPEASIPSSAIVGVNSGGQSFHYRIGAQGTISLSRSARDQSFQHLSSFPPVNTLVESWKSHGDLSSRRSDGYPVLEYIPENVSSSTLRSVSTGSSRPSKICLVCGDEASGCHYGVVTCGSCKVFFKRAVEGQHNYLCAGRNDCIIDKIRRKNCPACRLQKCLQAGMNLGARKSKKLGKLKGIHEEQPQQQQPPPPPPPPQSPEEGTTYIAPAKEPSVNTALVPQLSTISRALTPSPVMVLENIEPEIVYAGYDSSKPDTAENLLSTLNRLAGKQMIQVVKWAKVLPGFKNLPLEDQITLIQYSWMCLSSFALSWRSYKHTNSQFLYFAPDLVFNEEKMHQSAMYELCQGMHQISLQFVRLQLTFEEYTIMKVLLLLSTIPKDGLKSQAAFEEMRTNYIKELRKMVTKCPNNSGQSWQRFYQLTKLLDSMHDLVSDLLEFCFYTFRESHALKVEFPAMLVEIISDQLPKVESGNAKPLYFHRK
Test: Antagonist activity at human mineralocorticoid receptor overexpressed in CHOK1 cells assessed as inhibition of aldosterone-induced protein interaction with coactivator peptide after 6 hrs by luminescence assay
assayReadout: pIC50
Conceptually, pIC50 converts a concentration in mol/L into minus its log10.

C[C@H](c1ccc(F)cc1)N1C(=O)O[C@](Cc2ccccc2)(c2nc3cc(-n4cnnn4)ccc3[nH]2)C1=O: 6.92
C[C@H](c1ccc(F)cc1)N1C(=O)O[C@](Cc2ccccc2)(c2nc3cc(-c4cc[nH]n4)ccc3[nH]2)C1=O: 6.92
C[C@H](c1ccc(F)cc1)N1C(=O)O[C@](Cc2ccccc2)(c2nc3cc(Cl)ccc3[nH]2)C1=O: 6.80
C[C@H](c1ccc(F)cc1)N1C(=O)O[C@](Cc2ccccc2)(c2nc3cc(-c4cnoc4)ccc3[nH]2)C1=O: 7.21
C[C@H](c1ccc(F)cc1)N1C(=O)O[C@](Cc2ccccc2)(c2nc3c(F)cccc3[nH]2)C1=O: 7.14
C[C@H](c1ccc(F)cc1)N1C(=O)O[C@](Cc2ccccc2)(c2nc3cc(-c4ccccn4)ccc3[nH]2)C1=O: 6.92

// next item, pIC50 requested
**Query** For Mineralocorticoid receptor (Homo sapiens, UniProt P08235), give the measured pIC50 of the entry C[C@H](c1ccc(F)cc1)N1C(=O)O[C@](Cc2ccccc2)(c2nc3c(C(F)(F)F)cccc3[nH]2)C1=O
**Result** 6.82

---

IC50 overview
Target: Mineralocorticoid receptor (Homo sapiens)
Assay: Antagonist activity at human mineralocorticoid receptor overexpressed in CHOK1 cells assessed as inhibition of aldosterone-induced protein interaction with coactivator peptide after 6 hrs by luminescence assay
Assay type: cell-based, CHO-K1
Give the value, in units of nM, as a plain number.

C[C@H](c1ccc(F)cc1)N1C(=O)O[C@](Cc2ccccc2)(c2nc3cc(C(F)(F)F)ccc3[nH]2)C1=O: 120
C[C@H](c1ccc(F)cc1)N1C(=O)O[C@](Cc2ccccc2)(c2nc3c(-c4cnn(C)c4)cccc3[nH]2)C1=O: 150

We now examine a further compound.
**Query** For Mineralocorticoid receptor (Homo sapiens), give the measured IC50 of the entry C[C@H](c1ccc(F)cc1)N1C(=O)O[C@](Cc2ccccc2)(c2nc3c(Cl)cccc3[nH]2)C1=O
**Result** 130
